# cell viability listing for each entry below
Test system: SEM cells
Test: cell viability relative to DMSO control; higher = less cytotoxic
Conditions: HPLM + 10% dialyzed FBS; 48 h; 0.000781 µM
Just the number please, in %, no unit attached.

Prompt: Quick one: cell viability for C[N]1C=NC=C1[C@@](N)(C2=CC=C(Cl)C=C2)C3=CC=C4N(C)C(=O)\C=C(\C5=CC=CC(=C5)Cl)C4=C3 ?
Completion: 112

Others:
Prompt: Quick one: cell viability for O=C1CSC(=O)N1C(CCc1ccncc1)COc1ccc(-c2cccc([N+](=O)[O-])c2)cc1 (stereo unspecified) ?
Completion: 119

----------
# cell viability listing for each entry below
Test system: P12-Ichikawa
Test: cell viability relative to DMSO control; higher = less cytotoxic
Details: RPMI 5 mM glucose + 10% FBS; 48 h; 0.0211 µM
Just the number please, in %, no unit attached.

Prompt: Param readout = cell viability; param system = P12-Ichikawa; param query = Fc1ccc(C(c2ccc(F)cc2)N2CCN(C/C=C/c3ccccc3)CC2)cc1 ; response: value
Completion: 121

Others:
Prompt: Param readout = cell viability; param system = P12-Ichikawa; param query = COc1cc2nccc(Oc3ccc(NC(=O)Nc4cc(C)on4)c(Cl)c3)c2cc1OC ; response: value
Completion: 129
